Provenance of the data: ChEMBL document CHEMBL1133103

A collection of compounds and their measured pKB
target: Histamine H3 receptor (Cavia porcellus); assay: Tested in vitro against histamine H3 receptor mediated inhibition of cholinergic neurogenic contractions in isolated guinea pig ileum; assay type: functional, tissue-based
Output: the number by itself.

>  <SMILES_STR>
COc1ccc(C/N=C(\N)NCCCN2CCCC2)cc1

>  <OBSERVED_VALUE>
6.08

$$$$

Input: Tell me its pKB given O=S(=O)(Cc1ccc(Cl)cc1)NCCCN1CCCC1 as the entry.
Output: 6.24

Input: Using known records, supply pKB for N=C(N)N(CCCCCCCCN1CCCC1)Cc1ccc(Cl)cc1
Output: 8.09

* * *

target: Histamine H3 receptor (Cavia porcellus) (UniProt Q9JI35); experiment: Tested in vitro against histamine H3 receptor mediated inhibition of cholinergic neurogenic contractions in isolated guinea pig ileum; format: functional, tissue-based
Sequence (Q9JI35 whole entry): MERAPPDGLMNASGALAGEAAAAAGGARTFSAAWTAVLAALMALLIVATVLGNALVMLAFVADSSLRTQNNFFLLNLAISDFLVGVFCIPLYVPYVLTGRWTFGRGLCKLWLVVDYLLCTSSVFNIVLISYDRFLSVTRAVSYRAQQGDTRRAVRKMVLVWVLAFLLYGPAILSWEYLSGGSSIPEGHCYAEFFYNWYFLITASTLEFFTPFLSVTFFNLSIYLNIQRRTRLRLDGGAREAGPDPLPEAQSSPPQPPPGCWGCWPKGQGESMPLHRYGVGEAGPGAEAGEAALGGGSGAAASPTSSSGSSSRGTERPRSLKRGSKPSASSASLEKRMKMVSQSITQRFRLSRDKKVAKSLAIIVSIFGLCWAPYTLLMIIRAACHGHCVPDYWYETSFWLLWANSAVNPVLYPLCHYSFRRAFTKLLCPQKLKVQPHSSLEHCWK
QUANTITY_KIND: pKB
Answer using only a numeral; do not append any unit.

>  <SMILES_STR>
N=C(NCCCN1CCCC1)NCc1cccc(Br)c1

>  <pKB>
6.46

$$$$

Input: State its pKB for this molecule: N=C(NCCCCCN1CCCC1)NCC1CCCCC1
Output: 7.52

Input: Tell me measured pKB for CN(C)CCCSC(=N)N please.
Output: 5.93

Input: Quote pKB reported for N=C(N)N(CCCCN1CCCC1)Cc1ccc(Cl)cc1 please.
Output: 7.34

Input: Write down pKB measured for item N=C(N)N(CCCCCN1CCCC1)Cc1ccc(Cl)cc1
Output: 7.91

Input: Return the recorded pKB value; entry: N=C(NCCCCCN1CCCC1)NCC1CCCCCC1
Output: 7.67

Input: Please give measured pKB of the following entry: N=C(NCCCN1CCCC1)NCc1ccc(Cl)cc1
Output: 6.42

Input: Indicate its recorded pKB; the molecule in question is N=C(NCCCN1CCCC1)Nc1ccc(Cl)cc1
Output: 6.03

Input: Query pKB for N=C(NCCCCCN1CCCCCC1)NCC12CC3CC(CC(C3)C1)C2
Output: 7.84

Input: State its pKB: CN(C)CCCNS(=O)(=O)c1ccc2ccccc2c1
Output: 5.52

Input: Report pKB for N=C(NCCCN1CCCC1)NCc1ccc(C(F)(F)F)cc1
Output: 6.1

Input: Tell me measured pKB for S=C(NCCCN1CCCC1)NCc1ccc(Cl)cc1 please.
Output: 5.66

Input: # return recorded pKB for entry N=C(NCCCN1CCCC1)NCc1ccc(Br)cc1
Output: 6.45
